Measured growth, listed per entry for reference.
System: SK-MEL-2 melanoma
Experiment: NCI-60 one-dose screen, 48 h (100 = growth as untreated, 0 = no growth, -100 = all killed)
Settings: 10 µM unless noted
Compounds without any hit were thinned out: in the full panel of roughly 83,000, 20% have a hit.
Answer with a number only, understood to be in %.

Query :: Quick check: growth on SK-MEL-2 melanoma, item `COC(=O)c1c2c(c(C)[n+]([O-])c1C)C(=O)C=C(NCc1ccc(F)c(Cl)c1)C2=O` ?
Result :: -42.8

Query :: Test system SK-MEL-2 melanoma; read-out growth; what value for `Cc1ccc(S(=O)(=O)N2C/C(=C\c3cc(F)cc(F)c3)C(=O)/C(=C/c3cc(F)cc(F)c3)C2)cc1` ?
Result :: -25.9

Query :: Please state recorded growth (tested on SK-MEL-2 melanoma) of `COc1ccc(NC(=O)c2ccc3c(c2)nc(-c2ccc(Cl)cc2)n3-c2cc(C(C)(C)C)[nH]n2)cc1`
Result :: 92.7

Query :: Lab request: please report growth under test system SK-MEL-2 melanoma for `Clc1ccc(C2=NN(c3ccccc3)[C@H](c3cn(-c4ccccc4)nc3-c3ccccc3)C2)cc1`
Result :: 97.7

Query :: Record COc1cc(OCc2cccc(-c3ccc(C(O)c4nccs4)cc3)c2C)cc(OC)c1C=O (stereo not given) : what is its growth with SK-MEL-2 melanoma?
Result :: 60.4

Query :: Give growth (SK-MEL-2 melanoma) of the following molecule: `Cc1ccc(-c2nnc(COc3ccc(-c4nnc(N)s4)cc3)o2)cc1`
Result :: 104

Query :: Can you look up growth on SK-MEL-2 melanoma for `Cc1ccc(S(=O)(=O)c2ccc3[nH]c(=O)[nH]c(=O)c3c2)cc1` ?
Result :: 100

Query :: Kindly state the measured growth obtained for `Cc1nc2ccc(Cl)cc2n1C` with SK-MEL-2 melanoma.
Result :: 101

Query :: Please provide the recorded growth for `N#CCCN1CCN(CCC#N)C1=S` , tested on SK-MEL-2 melanoma.
Result :: 93.4

Query :: Could you share what growth was measured for `O=C(Nc1nc2ccccc2[nH]1)C(=O)Nc1nc2ccccc2[nH]1` , tested on SK-MEL-2 melanoma?
Result :: 98.8

* * *

Tested on: HCC-2998 colon
Assay: NCI-60 one-dose screen, 48 h
Details: 10 µM unless noted
The panel holds about 83,000 compounds, 20% with a hit somewhere; the sample as a whole holds those more often. Activity calls are given as the source filed them. How the source made its calls: active means growth percent below 10; inactive means the rest.
Thanks in advance; please answer with one of these: t (active), f (inactive)

As a guide, the following entries are already answered.
Cc1nc2cc(Nc3nc(Nc4ccc(F)cc4)nc(N4CCCC4)n3)ccc2n1Cc1ccccc1: t
COc1ccc(C(=O)C2=CC(=O)C(=O)C2)cc1OC: f
O=S(=O)(Nc1ccc(Cl)c(Cl)c1)c1ccc(-c2cnc(C3CC3)o2)cc1: f
Nc1nc(-c2ccnc(Cl)c2)nn1-c1nc2ccccc2s1: f
COc1ccc(S(=O)(=O)c2ccc(C(N)=O)cc2)cc1NC(=O)c1[nH]c(C)c2c1CCCCC2=O: f

Query :: What classification did `Cc1ccccc1-n1nnc(C(=O)Nc2ccc(-c3ccccc3)cn2)c1C` end up with in this test?
Result :: f

Query :: // param item: `CCCCCCCCCCCCCCCC[N+]1(C)CCOCC1` ; yields the recorded call
Result :: f

Query :: For `C=C1CC[C@@H]2[C@@](C)(CCC[C@]2(C)C(=O)O)[C@@H]1CC[C@H](CO)CCO` , which call appears in the assay record?
Result :: f

Query :: Kindly provide the recorded test outcome for the following compound: `Clc1cccc(Cl)c1Nc1ccc2nnc(-c3ccncc3)n2n1`
Result :: f

* * *

Tested on: OVCAR-3 ovarian
Assay: NCI-60 one-dose screen, 48 h
Settings: 10 µM unless noted
Compounds without any hit were thinned out: in the full panel of roughly 83,000, 20% have a hit. Activity calls are given as the source filed them. How the source made its calls: active means growth percent below 10; inactive means the rest.
Your response should consist of one outcome taken from 1.0 for active, 0.0 for inactive

CCOc1ccc(/C=N\N2CCCCCC2)cc1OCC: 0.0
O=C(c1ccc2ncc(-c3nc(NC4CC4)ncc3F)n2c1)N1CCOCC1: 1.0
Nc1nc(N)c(N=Nc2c(Br)cc(S(N)(=O)=O)cc2Br)c(N)n1: 0.0
NC(=S)N/N=C1\c2ccccc2-c2c(F)c(F)c(F)c(F)c21: 0.0
O=C(C[Si](CC(=O)c1cccc(C(F)(F)F)c1)CC(=O)c1cccc(C(F)(F)F)c1)c1cccc(C(F)(F)F)c1: 0.0

Query :: Called result for Cc1ccc(C2SCC(=O)N2NC(=O)c2[nH]c3ccc(F)cc3c2-c2ccccc2)cc1 (stereo unspecified)
Result :: 0.0

Query :: Recorded test call requested for `O=C1C(OCCOc2ccccc2)=C(OCCOc2ccccc2)C(=O)c2ccccc21`
Result :: 0.0

Query :: Each compound tested received a call. Report the one for `CSc1ccc(OC(C)=O)cc1C` .
Result :: 0.0

Query :: What call does the record list for `C[C@@H](Oc1cc(-c2cnn(C3CC4(CCNCC4)C3)c2)cnc1N)c1c(F)ccc(Cl)c1Cl` ?
Result :: 0.0

Query :: What outcome does the record of this test show for `Cc1cccc2c(=O)c3c(sc12)c(NCCNCCO)nc1ccccc13` ?
Result :: 0.0

Query :: Assay result, entry `O=C1/C(=C/c2ccc(Cl)cc2)CN(Cc2cn(CCCNc3ccnc4cc(Cl)ccc34)nn2)C/C1=C\c1ccc(Cl)cc1` — outcome?
Result :: 1.0

Query :: # outcome recorded in this test, key = `Cc1nc2cc(Nc3nc(Nc4ccc(F)cc4)nc(-c4cccs4)n3)ccc2n1Cc1ccccc1`
Result :: 0.0

Query :: Give the logged outcome of this assay for the following compound: `O=c1c2c(=NCCN3CCCC3)cc3c(=O)n(CCCN4CCOCC4)c(=O)c4c(-c5ccc(CN6CCCC6)cc5)cc(c(O)n1CCCN1CCOCC1)c2c4-3`
Result :: 1.0

Query :: Just curious, what result did `NC(=O)c1nc2c([nH]c1=O)CCCC2` get here?
Result :: 0.0

Query :: Answer briefly: the call reported for `Clc1ccccc1Nc1ccc2nnc(-c3ccncc3)n2n1` in this assay.
Result :: 0.0

* * *

Tested on: MOLT-4 leukemia
Test: NCI-60 one-dose screen, 48 h
Settings: 10 µM unless noted
Experimental: Growth inhibition of the MOLT-4 human tumor cell line is measured as a screen for anti-cancer activity. Cells are grown in 96 well plates and exposed to the test compound for 48 hours. Compounds are tested at a single concentration, which is 10^-5 M for most compounds. The reported endpoint is percent growth (GI% or GIPRCNT), where numbers from 0 - 100% represent growth inhibition, and numbers from -100% - 0 represent cell death. For example, a value of 40 represents 60% growth inhibition. […]
This is part of a sample that, as a whole, favours compounds with a hit. Of some 83,000 tested, about 20% had one in any assay. Calls of active or inactive are those of the source. How the source made its calls: active means growth percent below 10; inactive means the rest.
Pick one and only one: active, inactive

Answered examples (8):
O=S(=O)(/N=C1C=C/C(=N\S(=O)(=O)c2ccccc2)c2ccccc2\1)c1ccccc1: inactive
Cc1c(C(=O)Nc2nc(-c3ccccc3)cs2)nnn1-c1ccccc1Br: inactive
C=C(C)CCCC(C)CC#N (stereo not given): inactive
CCCCCCCC/C=C\CCCCCCCCOc1cccc(CC(=O)NCC[N+]2(C)CCOCC2)c1: inactive
COc1cc(CNCCCN2C(=O)c3ccc4c5c(ccc(c35)C2=O)C(=O)N(CCCNCc2cc(OC)c(OC)c(OC)c2)C4=O)cc(OC)c1OC: active
FC(F)(F)Oc1ccc2c(c1)C[C@H]1C[C@@H](c3ccoc3)N2O1: inactive
COc1ccccc1CNCCCCCCCCCCCCN1C(=O)c2ccc3c4c(ccc(c24)C1=O)C(=O)N(CCCCCCCCCCCCNCc1ccccc1OC)C3=O: inactive
O=c1[nH]c(=S)[nH]c(=O)n1Cc1cccc2ccccc12: inactive

Proceed to the following item.
Query :: # outcome recorded in this test, key = COc1cc(C2CC(=O)Nc3c2ccc2ccccc32)cc(Br)c1OC (stereo not given)
Result :: inactive

* * *

System: SR leukemia
Assay: NCI-60 one-dose screen, 48 h
Conditions: 10 µM unless noted
This is part of a sample that, as a whole, favours compounds with a hit. Of some 83,000 tested, about 20% had one in any assay. Active and inactive are the calls of the source. How the source made its calls: active means growth percent below 10; inactive means the rest.
Select the correct class. Options are True for active, False for inactive and nothing else.

Illustrative cases are given below, each with its answer.
COc1ccc(-c2nn(-c3ccc(NC(=O)c4ccc(Cl)c(Cl)c4)cc3)cc2-c2ccncc2)cc1Cl: False
CCN(CC)c1ccc2c(c1)OS(=O)(=O)N=C2: False
CN1CCN(c2nc(-c3ccncc3)nc3sc4c(c23)CCCCCC4)CC1: False
O=C(O)c1ccccc1Oc1cc(-c2ccco2)nc(OCCBr)n1: False
COc1ccc(-c2cc(=O)oc3c4c(ccc23)OCN(Cc2ccc(F)cc2)C4)cc1: False

Query :: # fetch the recorded call for `COC(=O)CCC(=O)c1ccccc1` here
Result :: False

Query :: Would you mind telling me which call this test gave `Cc1nc2cc(Nc3nc(NCCN)nc(Nc4ccc(F)cc4)n3)ccc2n1Cc1ccccc1` ?
Result :: True

Query :: Tell me the assay call for `O=[N+]([O-])c1ccc2nc(N/N=C/c3ccc(O)cc3)sc2c1` please.
Result :: False

Query :: Returns: the outcome recorded for `O=C1C=CC(=O)N1CCCCCCCCCCN1C(=O)C=CC1=O` in this assay.
Result :: False

Query :: I would be grateful if you could indicate the recorded call for `CCCCNNC(=O)c1ccc(Br)cc1` .
Result :: False

Query :: Can you look up the reported call for `CCN(c1ccc(C(=O)N2CCN(c3ccccc3)CC2)cc1)S(C)(=O)=O` for me?
Result :: False

Query :: Could you please tell me the result logged for `Nc1nc2c(s1)CCc1c-2c(Br)n(Cc2ccccc2)c1Br` in this assay?
Result :: False

The origin of these recorded values is PubChem BioAssay (NCI).
